// data source = patent US20220151983A1

Target: fucosyltransferase (FUT-8) (Homo sapiens, UniProt Q9BYC5)
Sequence (Q9BYC5 whole entry, species assumed): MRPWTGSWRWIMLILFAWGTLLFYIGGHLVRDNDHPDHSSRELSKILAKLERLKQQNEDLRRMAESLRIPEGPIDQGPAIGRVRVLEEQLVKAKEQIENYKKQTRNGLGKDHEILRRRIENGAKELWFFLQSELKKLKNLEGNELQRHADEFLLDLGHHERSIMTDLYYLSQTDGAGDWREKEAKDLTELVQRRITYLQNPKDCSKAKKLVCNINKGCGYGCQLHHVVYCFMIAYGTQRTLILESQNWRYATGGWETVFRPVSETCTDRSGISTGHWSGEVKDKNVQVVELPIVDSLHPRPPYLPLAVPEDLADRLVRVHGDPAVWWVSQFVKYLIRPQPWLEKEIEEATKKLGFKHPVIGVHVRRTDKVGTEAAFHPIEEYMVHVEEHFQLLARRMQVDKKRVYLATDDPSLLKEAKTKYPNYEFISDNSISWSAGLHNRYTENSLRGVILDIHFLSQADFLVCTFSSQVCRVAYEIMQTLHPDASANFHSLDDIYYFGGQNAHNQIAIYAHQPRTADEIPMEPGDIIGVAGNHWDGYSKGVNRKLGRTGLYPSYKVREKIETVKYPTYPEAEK
Assay: Inhibition of fucosyltransferase (FUT-8) activity, detection of fucosylation of the substrate protein
Assay type: biochemical
Conditions: incubated for 1 hour; read-out: IC50 Value
pIC50: −log10 of the molar value. Where a name gives a salt, the structure may show the parent alone.
MEASURED_ATTRIBUTE: pIC50

# input Any idea what its pIC50 is? The molecule is O=C1c2c(O)ccc(O)c2C(=O)c2c(NCCNCCO)ccc(NCCNCCO)c21 [Mitoxanthrone Hydrocloride, Mitoxanthrone Hydrochloride, reference compound]
# output < 5.00

# input Same for O=c1cc(-c2ccccc2)oc2cc(O)cc(O)c12 [Chrysin]
# output < 5.00

# input Could you do the same for Cc1ccc(C(=O)Nc2ccc(S(=O)(=O)O)c3cc(S(=O)(=O)O)cc(S(=O)(=O)O)c23)cc1NC(=O)c1cccc(NC(=O)Nc2cccc(C(=O)Nc3cc(C(=O)Nc4ccc(S(=O)(=O)O)c5cc(S(=O)(=O)O)cc(S(=O)(=O)O)c45)ccc3C)c2)c1 [Suramin, reference compound] , please?
# output > 5.00

----------
Target: fucosyltransferase (FUT-8) (Homo sapiens, UniProt Q9BYC5)
Experiment: Inhibition of fucosyltransferase (FUT-8) activity, detection of fucosylation of the substrate protein
Assay type: biochemical
MEASURED_ATTRIBUTE: IC50

# input What IC50 value was documented for this molecule, Cc1cc2c(C(C)C)c(O)c(O)c(C=O)c2c(O)c1-c1c(C)cc2c(C(C)C)c(O)c(O)c(C=O)c2c1O [Gossypol] ?
# output > 10 µM

# input Same question, Oc1c(Cl)cc(Cl)c(Cl)c1Cc1c(O)c(Cl)cc(Cl)c1Cl [Hexachlorophene, reference compound] this time
# output > 10 µM

----------
Can you tell me pIC50 for the items I'm about to list?
Target: fucosyltransferase (FUT-8) (Homo sapiens)
Experiment: Inhibition of fucosyltransferase (FUT-8) activity, detection of fucosylation of the substrate protein
Format: biochemical
Conditions: incubated for 1 hour; read-out: IC50 Value
pIC50: −log10 of the molar value.

# input Query (compound): C=C1c2cccc(O)c2C(=O)C2=C(O)[C@]3(O)C(=O)C(C(N)=O)=C(O)[C@@H](N(C)C)[C@@H]3[C@@H](O)[C@H]12 [Methacycline, reference compound] ; field requested: pIC50
# output > 5.00

# input Now the compound `O=C(O[C@@H]1Cc2c(O)cc(O)cc2O[C@@H]1c1cc(O)c(O)c(O)c1)c1cc(O)c(O)c(O)c1`
# output < 5.00

# input O=C1C=C2CC3(O)COc4c(ccc(O)c4O)C3=C2C=C1O (centres unmarked) , same question.
# output > 5.00

# input Cool, now `O=C(O)C1=CC(=C(c2ccc(O)c(C(=O)O)c2)c2ccc(O)c(C(=O)O)c2)C=CC1=O`
# output < 5.00

# input Same for N.N.[Cl][Pt][Cl] [Cisplatin, reference compound]
# output < 5.00

# input And what about the compound `C[n+]1c2cc(N)ccc2cc2ccc(N)cc21` ?
# output < 5.00

# input Try this compound next: CCOc1ccc2nc3cc(N)ccc3c(N)c2c1 [Ethcridine Lactate, Etheridine Lactate]
# output < 5.00

# input And then `O=c1cc(-c2ccccc2)oc2cccc(O)c12` , what is it?
# output < 5.00

# input Next entry: CCN(CC)CCNc1ccc(CO)c2sc3ccccc3c(=O)c12 [Hycanthone, reference compound]
# output < 5.00

# input And then O=C(O[C@@H]1Cc2c(O)cc(O)cc2O[C@@H]1c1ccc(O)c(O)c1)c1cc(O)c(O)c(O)c1 [Epicatechin Monogallate] , what is it?
# output < 5.00

# input Try this compound next: O=C1c2c(O)cccc2Cc2cccc(O)c21 [Anthralin, reference compound]
# output < 5.00

# input `O=c1c(O)cccc2cc(O)c(O)c(O)c12` , same question.
# output < 5.00

# input Entry O=C(O[C@@H]1Cc2c(O)cc(O)cc2O[C@@H]1c1cc(O)c(=O)c2c(O)c(O)cc([C@H]3Oc4cc(O)cc(O)c4C[C@H]3O)c2c1)c1cc(O)c(O)c(O)c1 [Theaflavin Monogallate] please
# output > 5.00

# input Now consider `O=C(OC[C@H]1O[C@@H](OC(=O)c2cc(O)c(O)c(OC(=O)c3cc(O)c(O)c(O)c3)c2)[C@H](OC(=O)c2cc(O)c(O)c(OC(=O)c3cc(O)c(O)c(O)c3)c2)[C@@H](OC(=O)c2cc(O)c(O)c(OC(=O)c3cc(O)c(O)c(O)c3)c2)[C@@H]1OC(=O)c1cc(O)c(O)c(OC(=O)c2cc(O)c(O)c(O)c2)c1)c1cc(O)c(O)c(OC(=O)c2cc(O)c(O)c(O)c2)c1` .
# output > 5.00
